- Procedure details: yeast display, Sf9 membrane polyspecificity reagent, FACS + sequencing; frameworks hold sequencing errors
Observable: polyreactivity (PSR sort gate)

Here is how some sequences turned out for polyreactivity (PSR sort gate).
| Item sequence | polyreactivity (PSR sort gate) |
| --- | --- |
| QVQLVESGGGLVQAGGRLRLSCAASGSTFLQNAMGWYRQAPGKEREFVAAISRSGGSTYYADSVKGRFTISRDNAKNTVYLQMNSLKPEDTAVYYCARRYWPGSAYWIYDYWGQGTQVTVSS | high polyreactivity |
| QVHLVESGGGLVQAGGSLRLSCAASGSIFWYYGMGWYRQAPGKERELVASITSGGSTNYADSVKGRFSISRDNAKNTVYLQMNRLKPEDSAVYYCNTDDDSSSTGYYSWGQGTQVNVSS | low polyreactivity |
| QVQLVESGGGLVQAGGSLRLSCADSGRIFGYYAMGWYRQAPGKERELVAAITVSDGRTNYADSVKGRFTISRDNAKNTVYLQMNSLKPEDTAVYYCAAVTPFRVLYDYWGQGTQVTVSS | low polyreactivity |
| QVQLVESGGGLVQAGGSLRLSCAASGSTFATYAMGWYRQAPGKERELVAVISRSGGSTYYADSVKGRFTISRDNAKNTVYLQMNSLKPEDTAVYYCNVPITPGRVKYDYWGQGTQVTVSS | high polyreactivity |
| QVQLVESGGGLVQAGGSLRLSCAASGSIFQGNVMGWYRQAPGKERELVAAIRNSGGTTYYADSVKGRFTISRDNAKNTVYLQMNSLKPEDTAVYYCAARYINRYPKAQPTDRSIYYWGQGTQVTVSS | high polyreactivity |

Fill in: polyreactivity (PSR sort gate) of QVQLVESGGGLVQAGGTLRLSCAASGSTFAANAMGWYRQAPGKERELVAAITSSGGSTYYADSVKGRFTISRDNAKNTVYLQMNSLKPEDTAVYYCNTDIERYVRIYDSWGQGTQVTVSS is ___
low polyreactivity

Fill in: polyreactivity (PSR sort gate) of QVQLVESGGGLVQAGGSLRLSCAASGLIFVTNAMGWYRQAPGKERELVAAITRSGGSTYYADSVKGRFTISRDNAKITVYLQMNSLKPEDTAVYYCATGFHYAYGYCGQGTQVTVSS is ___
low polyreactivity

Fill in: polyreactivity (PSR sort gate) of QVQLVESVVGLVQAGGSLRLSCAASGRIFIIYAMGWYIQAPGKEREFVAAITSSGGSTYYGDSVKGRFTISRDNAKNTVYLQMNSLKPEDSAVYYCAARVTKLRTSSLRGYWGQGTQVTVSS is ___
high polyreactivity

Fill in: polyreactivity (PSR sort gate) of QVQLVESGGGLVQAGGSLRLSCAASGFIIKFYAMGWYRPAPGKERELVAAISWRGGSTYYADSVKGRFTISRDIAKNTVYLQMNSLKPEDTAVYYCNKAGKARYWGRYNYWGQGTQVTVSS is ___
high polyreactivity

Fill in: polyreactivity (PSR sort gate) of QVQLVESGGGLVQAGGSLRVSCAASGSTFWSNVMGWYRQAPGKERELDSAISYGGVTTSYADSVKGRFTISRDNAKNTVYLQMNSLKPEDTAVYYCATDYVGYYFYESDYWGQGTQVTVSS is ___
low polyreactivity

Fill in: polyreactivity (PSR sort gate) of QVQLVESGGGLVQAGGSLRLSCAASGSIFVGYAMGWYRQAPGKERELVAAITSGGNTNYADSVKGRFTISRDNAKNTVYLQMNSLKPEDTAVYYCNKDQGDGLRSQLGTDATYDYWGQGTQVTVSS is ___
low polyreactivity

---

- Procedure details: yeast display, Sf9 membrane polyspecificity reagent, FACS + sequencing; frameworks hold sequencing errors
Observable: polyreactivity (PSR sort gate)

Here is how some sequences turned out for polyreactivity (PSR sort gate).
| Item sequence | Observable | Reported measurement |
| --- | --- | --- |
| QVQLVESGGGLVQAGGSLRLSCAASGYIFEIYAMGWYRQAPGKERELVAAISTRGGRTYYADSVKGRFTISRDNAKNTVYLEMKSLKPEDTAVYYCARESSIVPYGYWGQGTQVTVSS | polyreactivity (PSR sort gate) | low polyreactivity |
| QVQLVESGGGLVQAGGSLRLSCAASGSTFAKYAMGWSRQAPGKEREFVAAITASGGRTFYADSVKGRFTISRDNAKNTVYLQMNSLKPEDSAVYYCAADVVPTWYGYNYDYWGQGTQVTVSS | polyreactivity (PSR sort gate) | high polyreactivity |
| QVQLVESGGGLVQAGGSLRLSCAASGFTFRYYAMGWYRQAPGKERELVAAITRNGGSTYYADSVKGRFTISRDNAKHTVYLQMNSLKPEETAVYYCNRYGRQYDFYYWGQGTQVTVSS | polyreactivity (PSR sort gate) | high polyreactivity |
| QVQLVQSGGGLVQAGGSLRLSCAASGSTIVTNAMGWYRQAPGKERELVAANTSVGSTYYADSVKGRFTISRDNAKNTVYLQMNSLKPEDTAVYYCNVVYRDQYNYWGQGTQVTVSS | polyreactivity (PSR sort gate) | low polyreactivity |

Now turn to the next sequence.
Fill in: polyreactivity (PSR sort gate) of QFQLVESGGGLVQAGGRLRLSCAASGSTFLPYAMGWYRQAPGKESELVAAIRGRGGRTYYADSVKGRFTISRANAKNTVYLQMNSLKPEDSAVYYCAADVKGLSWTYDSWGQGTQVTVSS is ___
high polyreactivity

---

- Procedure details: yeast display, Sf9 membrane polyspecificity reagent, FACS + sequencing; frameworks hold sequencing errors
Observable: polyreactivity (PSR sort gate)

Here is how some sequences turned out for polyreactivity (PSR sort gate).
| Item sequence | Observable | Reported measurement |
| --- | --- | --- |
| QVQLVESGGGLVQAGGSLRLSCAASGSIFGPNAMRWYRQAPGKERELVAAINGGTGTFYADSLKGRFTISRDNAKNTVYLQMNSLKPEDTAVYYCAADYGTHYFVRYYYWGQGTQVTVSS | polyreactivity (PSR sort gate) | high polyreactivity |
| QVQLVESGGGLVQAGGSLRLSCAASGSIFVYNAMGWYRQAPGKEMELVASITWSGGRTYYADSVKGRFTISRDHAKNTVYLQMNSLKPEDTAVYYCNKRQYSRTFRYGYWGQGTQVTLSS | polyreactivity (PSR sort gate) | high polyreactivity |
| QVQLVESGGGLVQAGGSLRLSCAASGNIFKGYAMGWYRQAPGKERELVAAISKSGGSTYYADSVKGRFTISRDNAKNTVYLQMNSLKPEDTAVYYCAARSGGSGGTYGYWGQGTQVTVSS | polyreactivity (PSR sort gate) | high polyreactivity |
| QVQLVESGGGLVQAGGSLRLSCAASGRTFYYYAMGWYRQAPGKERELVATITSSGGSTYYADSVKGRFTISRDNAKNTVYLQINSLIPEDTAVYYCARTYTYKGGNTHSRWYYYWGQGTHVTVSS | polyreactivity (PSR sort gate) | high polyreactivity |
| QFHLVESGGGLVQAGGSLRLSCAASGSIFYPYDMGWYRQAPGKERELVATINWSSGRTNYADSVKGRFTISRDYAKNTVYLQMNSLKPEDSAVYYCNARFYYTLYYDYWGQGTQVTVSS | polyreactivity (PSR sort gate) | high polyreactivity |
| QVQLVESGGGLVQAGGSLRLSCAASGRIFRIYGMGWYRQAPGKERELVADISIGGRTTYADSVKGRFTISRDNAKNTVYLQMNSLKPEDTAVYYCKTPYWYRIGQRLAWYDYWGQGTQVTVSS | polyreactivity (PSR sort gate) | low polyreactivity |

Fill in: polyreactivity (PSR sort gate) of QVQLVESGGRLVQAGGSLRLSCAASGSIFIPNAMGWYRQAPGKERELVAAITVSGGITYYADSVKGRFTISRDNAKNSVYLQMNSLKPEDTAVYYCAADFTIYYILEYDYWGQGTQVTVSS is ___
low polyreactivity

Fill in: polyreactivity (PSR sort gate) of QVQLVESGGGLVQAGGSLRLSCAASGRTFVGYAMGWYRQAPGKERELLAAISKSGGRTYYADSVKGRFTISRDNAKNTVFLQMNSLKPDDTAVYYCNAVVVYYVDAGRYDYWGQGTQVTVSS is ___
high polyreactivity

Fill in: polyreactivity (PSR sort gate) of QVQLVESGGGLVQAGGSLRLSCAASGGTFSTYAMGWYRQAPGKERELVAAISWRGGSTYYADSVKGRFTISRDNAKNTVYLQMNSLKPEDTAVYYCAAYYSRGWLLYWDEMSYWGQGTQVTVSS is ___
high polyreactivity

Fill in: polyreactivity (PSR sort gate) of QVQLVESGGGLVQAGGSLRLSCAASGSIFEWYAMGWYRQAPGKERELVADISSLGSTYYADSVKGRFTISRDNAKNTVYLQMNSLKPEDTAVYYCNTSYIIWYDSWGQGTQVTVSS is ___
low polyreactivity

---

- Procedure details: yeast display, Sf9 membrane polyspecificity reagent, FACS + sequencing; frameworks hold sequencing errors
Observable: polyreactivity (PSR sort gate)

| Item sequence | Reported measurement |
| --- | --- |
| QVQLVESGVGLVQAGGSLRLSCAASGCIFIKYAMGWSRQAPGKERELVASITISSGRTYYADSVKGRFTISRDNAKNTVYLQMISLKPEDTAVYYCAAVSLWYSAYEYWGQGTQVTVSS | high polyreactivity |
| QVQLVESGGGLVQAGGSLRLSCAASGFTFPQYVMGGYRQAPGKERELVAAISSRGGRTYYADSVKGRFTISRDNAKNTVYLQMNSLIPEDTAVYYCAKGKRDSRAFDYWGQGTQVTVSS | high polyreactivity |
